# target-desc: T1, p300 TAZ2 domain (1723-1836), Q09472
# T1 chain: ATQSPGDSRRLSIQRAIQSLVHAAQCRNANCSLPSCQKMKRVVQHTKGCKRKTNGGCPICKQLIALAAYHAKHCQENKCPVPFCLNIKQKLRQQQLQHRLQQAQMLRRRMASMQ
# assay-comment: BLI
# protocol-conditions: chain shown with the change; TAZ2 10 µM; parent: est. 0.22; read off a plot
For each record, write down the corresponding response.
Express it in nm; write the number only.

Field response (entry GST-NUT8 wild type L410A; L411A; Y413A; L417A; C418A; F423A; V424A; V427A; V430A; I431A; F435A; L436A; L439A; L440A; D447A; L449A; A450G; L451A; E453A; E454A; … (protein) GQQQEEEGMYPDPGAASAINEAASQKVAASKAEAAAHPQAAADAASPEKQRAPAGAIAAAAQAAGAALAQLVQKRLMALEEEEDAE ) reads 0.085

Field response (entry GST-NUT8 wild type L436A; L439A; L440A; D447A; L449A; A450G; L451A; E453A; E454A; L455A; E456A; E458A; E459A; L461A; T462A (protein) GQQQEEEGMYPDPGLLSYINELCSQKVFVSKVEAVIHPQFAADAASPEKQRAPAGAIAAAAQAAGAALAQLVQKRLMALEEEEDAE ) reads 0.2

Field response (entry GST-NUT8 wild type D447A; L449A; A450G; L451A; E453A; E454A; L455A; E456A; E458A; E459A; L461A; T462A (protein) GQQQEEEGMYPDPGLLSYINELCSQKVFVSKVEAVIHPQFLADLLSPEKQRAPAGAIAAAAQAAGAALAQLVQKRLMALEEEEDAE ) reads 0.13

Field response (entry GST-NUT8 wild type D407K; L410A; Y413K; C418G; F423A; V424G; E428S; V430G; P433G; F435S; L439G; L440S; D447K; A450G; L451S; E454K; L455S; E458K; E459S; L461G; … (protein) GQQQEEEGMYPKPGALSKINELGSQKVAGSKVSAGIHGQSLADGSSPEKQRKPLGSIEKSEQKSGGSLAQLVQKRLMALEEEEDAE ) reads 0.03
